Hello, the source for this data is ChEMBL document CHEMBL3525934, in case you need it.

- Assay System: Cytochrome P450 2D6 (Homo sapiens)
- Sequence (P10635 whole entry): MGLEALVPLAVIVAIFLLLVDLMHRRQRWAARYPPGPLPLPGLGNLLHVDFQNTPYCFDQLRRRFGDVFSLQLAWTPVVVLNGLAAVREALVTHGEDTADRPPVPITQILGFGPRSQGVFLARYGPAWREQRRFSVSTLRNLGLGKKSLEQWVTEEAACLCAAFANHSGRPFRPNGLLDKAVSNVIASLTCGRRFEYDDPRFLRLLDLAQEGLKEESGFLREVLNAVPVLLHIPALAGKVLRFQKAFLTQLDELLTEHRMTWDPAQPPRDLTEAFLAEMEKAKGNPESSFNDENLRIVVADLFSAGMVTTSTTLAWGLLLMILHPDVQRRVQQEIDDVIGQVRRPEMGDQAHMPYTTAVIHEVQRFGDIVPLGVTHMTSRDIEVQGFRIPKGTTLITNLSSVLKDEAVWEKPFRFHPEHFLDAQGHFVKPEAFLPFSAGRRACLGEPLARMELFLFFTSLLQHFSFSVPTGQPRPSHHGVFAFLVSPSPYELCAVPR
- Test Protocol: Drug metabolism in supersomes expressing human recombinant CYP2D6 assessed as enzyme-mediated N-desmethylclozapine metabolite formation at 10 uM after 30 mins measured per nmol of P450 by HPLC analysis
- Format: ADME
- Experimental Context: 0.5 h
Value Kind: Drug metabolism
Report as: number unit

Ask: I am curious: what Drug metabolism value has been reported for "CN1CCN(C2=Nc3cc(Cl)ccc3Nc3ccccc32)CC1" ?
Reply: 8.43 nmol/min/nmol P450

----------
- Assay System: Cytochrome P450 2C18 (Homo sapiens)
- Sequence (P33260 whole entry): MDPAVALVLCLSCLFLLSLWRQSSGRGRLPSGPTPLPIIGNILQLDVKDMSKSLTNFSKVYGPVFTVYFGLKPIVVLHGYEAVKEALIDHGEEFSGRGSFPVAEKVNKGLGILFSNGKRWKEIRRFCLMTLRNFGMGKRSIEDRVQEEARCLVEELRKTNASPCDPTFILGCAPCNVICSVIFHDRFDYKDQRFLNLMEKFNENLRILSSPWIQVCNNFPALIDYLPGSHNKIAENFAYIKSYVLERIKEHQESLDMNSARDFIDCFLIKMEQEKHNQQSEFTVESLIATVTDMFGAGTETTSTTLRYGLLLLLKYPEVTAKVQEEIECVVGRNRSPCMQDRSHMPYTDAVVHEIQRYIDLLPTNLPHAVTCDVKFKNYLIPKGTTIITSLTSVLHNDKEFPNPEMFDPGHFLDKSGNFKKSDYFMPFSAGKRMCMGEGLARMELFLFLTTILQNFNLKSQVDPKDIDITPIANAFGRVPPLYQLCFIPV
- Test Protocol: Drug metabolism in supersomes expressing human recombinant CYP2C18 assessed as enzyme-mediated N-desmethylclozapine metabolite formation at 10 uM after 30 mins measured per nmol of P450 by HPLC analysis
- Assay type: ADME
- Experimental Context: 0.5 h
Value Kind: Drug metabolism
Report as: number unit

Ask: I am curious: what Drug metabolism value has been reported for CN1CCN(C2=Nc3cc(Cl)ccc3Nc3ccccc32)CC1 [CLOZAPINE] ?
Reply: 4.08 nmol/min/nmol P450
